TARGET_DESC: T1, recombinant human HER3 (human, UniProt P21860 20-643)
T1 construct: Bought reagent
TEST_DETAILS: SPR (Biacore T200), HER3 captured via anti-His, Fab analyte;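 note: single cycle kinetics with five Fab concentrations, referenced against a blank flow cell and mock-buffer injections, sensorgrams fit to a 1:1 binding model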
QUANTITY_KIND: pKd
Expect pKd as a plain number equal to -log10 of the molar concentration.

Study these solved cases before continuing.
- H3 designed Vlambda-Ckappa chimeric Fab, design 36 (E83A_T105E) (Fab, name in Kabat numbering, V domains shown) VH: QVQLQESGGGLVKPGGSLRLSCAASGFTFSSYWMSWVRQAPGKGLEWVANINRDGSASYYVDSVKGRFTISRDDAKNSLYLQMNSLRAEDTAVYYCARDRGVGYFDLWGRGTLVTVSS VL: QSALTQPASVSGSPGQSITISCTGTSSDVGGYNFVSWYQQHPGKAPKLMIYDVSDRPSGVSDRFSGSKSGNTASLIISGLQADDAADYYCSSYGSSSTHVIFGGGTKVEVLR: 7.18
- H3 designed Vlambda-Ckappa chimeric Fab, design 39 (E83A_D85T_T105E_V106I) (Fab, name in Kabat numbering, V domains shown) VH: QVQLQESGGGLVKPGGSLRLSCAASGFTFSSYWMSWVRQAPGKGLEWVANINRDGSASYYVDSVKGRFTISRDDAKNSLYLQMNSLRAEDTAVYYCARDRGVGYFDLWGRGTLVTVSS VL: QSALTQPASVSGSPGQSITISCTGTSSDVGGYNFVSWYQQHPGKAPKLMIYDVSDRPSGVSDRFSGSKSGNTASLIISGLQADDAATYYCSSYGSSSTHVIFGGGTKVEILR: 7.05
- H3 designed Vlambda-Ckappa chimeric Fab, design 17 (E83F_D85T) (Fab, name in Kabat numbering, V domains shown) VH: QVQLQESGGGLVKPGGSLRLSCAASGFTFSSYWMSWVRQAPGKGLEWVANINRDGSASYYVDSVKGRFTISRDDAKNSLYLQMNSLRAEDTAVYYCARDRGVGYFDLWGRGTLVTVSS VL: QSALTQPASVSGSPGQSITISCTGTSSDVGGYNFVSWYQQHPGKAPKLMIYDVSDRPSGVSDRFSGSKSGNTASLIISGLQADDFATYYCSSYGSSSTHVIFGGGTKVTVLR: 7.08
- H3 designed Vlambda-Ckappa chimeric Fab, design 15 (E83F_T105E) (Fab, name in Kabat numbering, V domains shown) VH: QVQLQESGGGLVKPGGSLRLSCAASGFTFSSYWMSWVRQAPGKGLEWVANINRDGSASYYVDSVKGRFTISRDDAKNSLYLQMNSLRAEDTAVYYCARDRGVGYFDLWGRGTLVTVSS VL: QSALTQPASVSGSPGQSITISCTGTSSDVGGYNFVSWYQQHPGKAPKLMIYDVSDRPSGVSDRFSGSKSGNTASLIISGLQADDFADYYCSSYGSSSTHVIFGGGTKVEVLR: 7.04

Look up pKd for this binder: H3 designed Vlambda-Ckappa chimeric Fab, design 35 (E83A) (Fab, name in Kabat numbering, V domains shown) VH: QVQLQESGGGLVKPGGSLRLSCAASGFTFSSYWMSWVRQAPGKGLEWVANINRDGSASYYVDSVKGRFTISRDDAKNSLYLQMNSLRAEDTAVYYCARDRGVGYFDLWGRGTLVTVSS VL: QSALTQPASVSGSPGQSITISCTGTSSDVGGYNFVSWYQQHPGKAPKLMIYDVSDRPSGVSDRFSGSKSGNTASLIISGLQADDAADYYCSSYGSSSTHVIFGGGTKVTVLR 7.23
